test system: murine splenocytes (Balb/c and C57B1/6); assay: Two-way mixed lymphocyte reaction (MLR) assay; conditions: read-out: two-way mixed lymphocyte reaction (MLR) suppression MLR, IC50; Balb/c + C57B1/6 splenocytes, 96 h, [3H]thymidine;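 note: proliferation read as tritiated thymidine incorporation into newly made DNA after an overnight pulse, expressed as percent of control activity, IC50 interpolated per compound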
Numbered stars: 1 amine (or outer) side, 2 acyl side, 3 side chain; on linkers, the order of the positions; unused ones are H or OH. Bridge positions count the residues as written; N and C are the ends. Square brackets hold non-standard residues; d marks the D form. Peptide text beside a SMILES is read from it. * marks the point of attachment. X1 = CC[C@H](C)[C@@H](N[*:1])[C@@H](O)CC(=O)O[C@H](C(=O)[C@H](C)C(=O)[*:2])C(C)C; NMeY = CN[C@@H](Cc1ccc(O)cc1)C(=O)O; dNMeL = CN[C@H](CC(C)C)C(=O)O; Propionyl = CCC(=O)*
Parameter: pIC50. Scope: all listed entries.
To interpret pIC50, take it as minus log10 of a concentration measured in moles per litre.

| molecule | pIC50 |
| --- | --- |
| CCC(=O)N(C)[C@H](CC(C)C)C(=O)N[C@@H]1C(=O)N[C@H]([C@@H](C)CC)[C@@H](O)CC(=O)O[C@@H](C(C)C)C(=O)[C@H](C)C(=O)N[C@@H](CC(C)C)C(=O)N2CCC[C@H]2C(=O)N(C)[C@@H](Cc2ccc(OC)cc2)C(=O)O[C@@H]1C [Compound 19, N^α -Propionyldidemnin A] (Propionyl-[dNMeL]T[X1]LP[NMeY](Me); ester 2-C) | 9.43 |

Please find the next molecule below.
Q) Note down pIC50 recorded for CC[C@H](C)[C@H]1NC(=O)[C@@H](NC(=O)[C@@H](CC(C)C)NC)[C@@H](C)OC(=O)[C@H](Cc2ccc(OC)cc2)N(C)C(=O)[C@@H]2CCCN2C(=O)[C@H](CC(C)C)NC(=O)[C@@H](C)C(=O)[C@H](C(C)C)OC(=O)C[C@@H]1O [Compound 2, Didemnin A] (H-[dNMeL]T[X1]LP[NMeY](Me); ester 2-C)
A) 9.01
